# protocol-text: Acute toxicity, intraperitoneal LD50
# Assay type: in vivo
# experimental-conditions: in vivo, ip, read-out: DL 50 voie intrapérito-néale
assay-metric: LD50

If you can, please state the reported LD50 value of "[H]/N=C(\N/C(=N/[H])NCCCCCCNC(=N)NC(=N)Nc1ccc(Cl)cc1)Nc1ccc(Cl)cc1" .
47 to 100 mg/kg
